- system: Chromo domain-containing protein 1 (Saccharomyces cerevisiae (strain ATCC 204508 / S288c) (Baker's yeast)) (UniProt P32657)
- Sequence (P32657 whole entry, the tested form may be a part): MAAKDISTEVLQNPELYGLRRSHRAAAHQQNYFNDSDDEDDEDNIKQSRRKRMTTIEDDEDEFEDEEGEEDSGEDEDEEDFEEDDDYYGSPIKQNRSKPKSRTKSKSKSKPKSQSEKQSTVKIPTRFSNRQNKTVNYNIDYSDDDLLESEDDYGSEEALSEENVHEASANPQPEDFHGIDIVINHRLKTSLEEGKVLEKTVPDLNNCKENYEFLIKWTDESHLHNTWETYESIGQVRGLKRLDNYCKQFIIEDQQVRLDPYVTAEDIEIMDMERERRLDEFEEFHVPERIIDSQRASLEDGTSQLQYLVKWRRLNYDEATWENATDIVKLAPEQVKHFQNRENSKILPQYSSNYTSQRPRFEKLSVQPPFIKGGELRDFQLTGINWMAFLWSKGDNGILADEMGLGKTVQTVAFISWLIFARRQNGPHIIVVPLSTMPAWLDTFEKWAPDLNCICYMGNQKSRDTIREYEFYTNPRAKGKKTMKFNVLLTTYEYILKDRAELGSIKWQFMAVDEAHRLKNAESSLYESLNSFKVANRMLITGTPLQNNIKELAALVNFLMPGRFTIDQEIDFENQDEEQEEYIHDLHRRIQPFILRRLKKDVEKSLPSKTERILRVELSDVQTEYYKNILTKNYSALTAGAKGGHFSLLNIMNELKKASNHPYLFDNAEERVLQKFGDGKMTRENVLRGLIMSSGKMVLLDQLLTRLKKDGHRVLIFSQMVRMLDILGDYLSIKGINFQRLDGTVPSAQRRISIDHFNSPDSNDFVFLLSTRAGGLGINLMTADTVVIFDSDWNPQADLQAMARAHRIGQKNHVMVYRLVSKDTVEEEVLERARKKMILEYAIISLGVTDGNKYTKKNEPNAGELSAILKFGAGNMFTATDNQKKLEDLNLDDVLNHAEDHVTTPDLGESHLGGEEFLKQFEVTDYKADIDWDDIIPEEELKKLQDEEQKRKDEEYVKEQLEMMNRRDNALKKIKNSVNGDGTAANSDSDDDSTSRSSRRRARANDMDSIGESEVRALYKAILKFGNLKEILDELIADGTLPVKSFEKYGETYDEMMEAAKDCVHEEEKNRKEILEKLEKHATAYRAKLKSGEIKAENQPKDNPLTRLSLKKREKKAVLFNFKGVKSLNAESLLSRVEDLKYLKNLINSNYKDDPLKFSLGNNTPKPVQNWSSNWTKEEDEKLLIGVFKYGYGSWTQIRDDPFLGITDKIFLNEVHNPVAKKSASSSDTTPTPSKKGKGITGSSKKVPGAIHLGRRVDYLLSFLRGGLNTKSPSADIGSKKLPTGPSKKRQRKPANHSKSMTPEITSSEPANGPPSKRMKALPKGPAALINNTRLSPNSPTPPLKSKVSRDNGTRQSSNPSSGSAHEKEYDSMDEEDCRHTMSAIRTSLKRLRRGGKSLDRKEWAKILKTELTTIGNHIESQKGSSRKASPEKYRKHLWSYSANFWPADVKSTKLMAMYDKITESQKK
- experimental_details: ScCHD-1 Enzyme Inhibition Assay; note: in the data most compounds retested in dose-response had high values
- Format: functional
- Parameters: scale not given: direction of the effect not stated beside the values
- stated_conditions: 30 µM

{"molecule": "CN(Cc1ccsc1)C(=O)c1cccc(F)c1", "Percent Effect [%]": -9.1}
{"molecule": "O=C1NC(c2ccccc2)=N[C@@]12CC[C@@H]1CN(Cc3ccccc3)C[C@@H]12", "Percent Effect [%]": -8.07}
{"molecule": "c1cnc(NCc2noc3c2CN(C2CCOCC2)CC3)nc1", "Percent Effect [%]": -7.21}
{"molecule": "c1ccc(CN2CCCC(c3nccnc3-n3ccnc3)C2)cc1 (stereo not drawn)", "Percent Effect [%]": -0.742}
{"molecule": "Cc1noc(C)c1-c1cncc(C2CCCN2Cc2cncnc2)n1 (stereo not drawn)", "Percent Effect [%]": -6.34}
{"molecule": "Cc1cnn(CCNCC(O)COc2ccc(C#N)cc2)c1 (stereo not drawn)", "Percent Effect [%]": -5.58}
{"molecule": "Cn1ccnc1CN1CCC2(CC1)CN(CC1CC1)C(=O)CO2", "Percent Effect [%]": 90.8}
{"molecule": "Cc1cnn(C2CN(CC(O)c3ccc4c(c3)OCCO4)C2)c1 (stereo not drawn)", "Percent Effect [%]": -6.83}

###

- system: Protein translocase subunit SecA (Escherichia coli (strain K12)) (UniProt P10408)
- Sequence (P10408 whole entry): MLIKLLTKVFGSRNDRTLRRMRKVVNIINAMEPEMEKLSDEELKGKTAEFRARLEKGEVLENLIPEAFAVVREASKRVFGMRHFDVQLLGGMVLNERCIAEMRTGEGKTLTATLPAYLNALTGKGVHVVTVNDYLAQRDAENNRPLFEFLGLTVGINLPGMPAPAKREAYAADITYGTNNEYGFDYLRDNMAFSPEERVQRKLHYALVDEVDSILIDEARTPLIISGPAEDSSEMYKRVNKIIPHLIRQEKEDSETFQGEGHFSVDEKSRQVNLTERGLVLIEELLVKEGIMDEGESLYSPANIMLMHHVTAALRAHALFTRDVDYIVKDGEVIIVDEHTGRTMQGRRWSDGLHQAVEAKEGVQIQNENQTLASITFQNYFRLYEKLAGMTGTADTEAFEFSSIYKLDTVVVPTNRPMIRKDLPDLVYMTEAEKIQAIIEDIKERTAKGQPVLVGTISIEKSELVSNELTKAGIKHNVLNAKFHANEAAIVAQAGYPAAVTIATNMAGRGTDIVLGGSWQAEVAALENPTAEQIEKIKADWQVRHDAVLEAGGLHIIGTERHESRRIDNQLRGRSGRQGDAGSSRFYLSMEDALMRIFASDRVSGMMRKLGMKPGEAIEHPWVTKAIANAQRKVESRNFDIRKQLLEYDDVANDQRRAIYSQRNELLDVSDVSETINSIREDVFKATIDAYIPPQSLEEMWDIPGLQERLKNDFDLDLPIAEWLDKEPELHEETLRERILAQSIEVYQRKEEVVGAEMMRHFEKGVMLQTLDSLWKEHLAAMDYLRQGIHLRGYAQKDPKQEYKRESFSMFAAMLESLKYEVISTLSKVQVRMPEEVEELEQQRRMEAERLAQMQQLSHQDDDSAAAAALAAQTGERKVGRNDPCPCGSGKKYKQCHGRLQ
- experimental_details: Assay to Identify E. coli SecA ATPase Inhibitors
- Type: functional
- Set-up: scale not given: direction of the effect not stated beside the values
- stated_conditions: 30 µM
Entries with a potency or affinity are not part of this list.

{"compound": "NC(=O)C1CCCN1Cc1cccc(NC(=O)c2ccsc2)c1 (centres undefined)", "Percent Effect [%]": -3.24}
{"compound": "CC(=O)N1CCCC1c1nnc2n1CCCCC2 (centres undefined)", "Percent Effect [%]": -8.8}
{"compound": "CNC(=O)CN1CCC(NC(=O)N(C)Cc2cc(C)on2)CC1", "Percent Effect [%]": -1.81}
{"compound": "CC(CCN1CCn2nc(CNC(=O)N(C)C)cc2C1)c1ccccc1 (centres undefined)", "Percent Effect [%]": -0.0552}

###

- Tested on: Trypanosoma cruzi
- experimental_details: Trypanosoma cruzi phosphomannomutase and mannose-1-phosphate guanylyltransferase assay
- Type: functional
- Set-up: scale not given: direction of the effect not stated beside the values
- stated_conditions: 10 µM
This section presents compounds with their documented Percent Effect values.
observation_type: Percent Effect (%)

{"compound": "CCO[C@@H]1CC[C@H]2[C@H]1OCCN2C(=O)C1CCOCC1", "observation_type": "Percent Effect", "meas_value": 3.32}
{"compound": "Cn1cc(C(=O)NCC2CCN(C(=O)NCC(F)(F)F)CC2)cn1", "observation_type": "Percent Effect", "meas_value": -0.308}
{"compound": "O=C(NCCC(=O)N1CCCCCC1)c1c(O)cc(F)cc1F", "observation_type": "Percent Effect", "meas_value": 7.35}
{"compound": "Cn1cc(CN2CCn3c(CNC(=O)c4cccn4C)cnc3C2)cn1", "observation_type": "Percent Effect", "meas_value": -0.193}
{"compound": "Cc1cc(CN2CCOC(CN(C)C)C2)no1 (centres undefined)", "observation_type": "Percent Effect", "meas_value": -4.92}
{"compound": "Cc1ccc(C(=O)N2C[C@@H]3COC[C@]3(COc3cccnc3)C2)cn1", "observation_type": "Percent Effect", "meas_value": 1.07}
{"compound": "Cc1nc(CN(C)C2CCN(Cc3nc4ccccc4s3)C2)no1 (centres undefined)", "observation_type": "Percent Effect", "meas_value": 4.95}
{"compound": "Cc1nc2n(n1)CC(NCc1cc(Cl)c3c(c1)OCCCO3)CC2 (centres undefined)", "observation_type": "Percent Effect", "meas_value": 5.51}
{"compound": "Cc1ccc(CNC(=O)Nc2nnc(C)s2)cn1", "observation_type": "Percent Effect", "meas_value": 1.03}
{"compound": "CC(=O)N1[C@H](Cn2cncn2)C[C@@H]2CN(c3ccc(C)nn3)CC[C@@H]21", "observation_type": "Percent Effect", "meas_value": 3.83}
{"compound": "COc1ccccc1N1CCC(CNCc2cccc(C#N)c2)C1 (centres undefined)", "observation_type": "Percent Effect", "meas_value": 3.11}
{"compound": "O=C([C@H]1CN(CCc2ccccc2)C[C@H]2OCC[C@@H]12)N1CCCO1", "observation_type": "Percent Effect", "meas_value": 6.37}
{"compound": "O=C(CCc1nc2cccnc2[nH]1)NCc1ccc2c(c1)OCO2", "observation_type": "Percent Effect", "meas_value": 0}
{"compound": "CC(C)OCc1ncn2c1CN(Cc1ccc(F)cc1)CCC2", "observation_type": "Percent Effect", "meas_value": -4.79}
{"compound": "CC(C)n1c(C2CCCN(Cc3ccnn3C)C2)nc2ccccc21 (centres undefined)", "observation_type": "Percent Effect", "meas_value": 6.5}
{"compound": "CC(NC(=O)C1=NN(C)C(=O)CC1)c1ccc(F)cc1F (centres undefined)", "observation_type": "Percent Effect", "meas_value": 4.11}
{"compound": "Cc1nc(C)n(C2CCCN(C(=O)c3csc(C(C)C)n3)C2)n1 (centres undefined)", "observation_type": "Percent Effect", "meas_value": 8.4}
{"compound": "Cc1nc(CN2CCCCC2Cn2cncn2)nc2ccccc12 (centres undefined)", "observation_type": "Percent Effect", "meas_value": 3.23}
{"compound": "O=C(NCCNc1ncccn1)C1CCN(c2ncccn2)CC1", "observation_type": "Percent Effect", "meas_value": 7.71}
{"compound": "O=C1CCCN1CC1CN(C(=O)CC2CCCC2)Cc2nccn2C1 (centres undefined)", "observation_type": "Percent Effect", "meas_value": -1.08}
{"compound": "Cc1nc(COC[C@]23COC[C@H]2CN(Cc2ccoc2)C3)cs1", "observation_type": "Percent Effect", "meas_value": 6.94}
{"compound": "COc1cc(CCC(=O)NCC2CCCN2C)ccc1OCC(F)(F)F (centres undefined)", "observation_type": "Percent Effect", "meas_value": -0.0934}
{"compound": "O=C(CN1CCCCC1Cn1cccn1)NC1CCN(C2CC2)CC1 (centres undefined)", "observation_type": "Percent Effect", "meas_value": -1.16}
{"compound": "N#Cc1ccc(N2CCCN(C(=O)CC3CCCO3)CC2)cc1 (centres undefined)", "observation_type": "Percent Effect", "meas_value": 5.19}
